Reference source: paper PMC5540273

- Tested on: BMPR1A;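 further: KINOMEscan kinase panel screen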
- Conditions: concentration: 1 μM, replicates: in singlicate; n = 1
Reported Endpoint: %Inh (%)
Provide only the numeric value, understood in %.

Example cases with answers are listed next.
{"Cpd Smiles": "Cl.Cl.Cl.N#Cc1ccc(CCNc2nccc(-c3cccc(CN4CCNCC4)c3)n2)cc1", "Reported Endpoint": "%Inh", "Result Unit": "%", "Readout Value": 0}
{"Cpd Smiles": "NS(=O)(=O)c1cccc(N/C=C2\\C(=O)Nc3ccc(S(=O)(=O)Cc4c(Cl)cccc4Cl)cc32)c1", "Reported Endpoint": "%Inh", "Result Unit": "%", "Readout Value": 0}
{"Cpd Smiles": "CNCc1ccc2nc(NC(=O)c3ccc(C(C)(C)C)cc3)cn2c1", "Reported Endpoint": "%Inh", "Result Unit": "%", "Readout Value": 17}
{"Cpd Smiles": "COc1ccc(CSc2nnc(-c3ccc4ncsc4c3)o2)cc1C(F)(F)F", "Reported Endpoint": "%Inh", "Result Unit": "%", "Readout Value": 17}
{"Cpd Smiles": "O=c1cc(N2CCOCC2)nc2n(Cc3cccc(Cl)c3Cl)c3ccccc3n12", "Reported Endpoint": "%Inh", "Result Unit": "%", "Readout Value": 2}

Hi! What's the reported %Inh for COc1ccc2cc(-c3nc(-c4ccccc4C(C)C)[nH]c3-c3ccncc3)ccc2c1 on BMPR1A?
17

Hi! What's the reported %Inh for Cc1nccc(-c2c(-c3ccc(F)cc3)ncn2CCCN2CCOCC2)n1.Cl on BMPR1A?
26

Hi! What's the reported %Inh for Cc1ccc(NC(=O)c2ccc(Cl)cc2)cc1-c1ccc(C(=O)Nc2ccncc2)cc1 on BMPR1A?
0

Hi! What's the reported %Inh for O=C(Nc1n[nH]c2cc(-c3ccsc3)ccc12)C1CC1 on BMPR1A?
27

Hi! What's the reported %Inh for O=C1NC(=O)C(c2ccc(Cl)cc2)=C1Nc1cccc(Cl)c1 on BMPR1A?
0

Hi! What's the reported %Inh for CC(C)c1ccc(O)cc1Nc1ccnc2ccc(C(F)(F)F)cc12 on BMPR1A?
0
